protein stability index values by entry
B1: SPRY1 (parent)
chain: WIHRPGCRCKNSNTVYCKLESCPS

variants of: B1; test: protein stability index of a GFP-peptide fusion (GPS, HEK-293T) (PSI 1-6); higher = more stable; details: c terminus: a fixed tail appended;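 further: lentivirally expressed fusions sorted by FACS into six bins by GFP to DsRed ratio, PSI derived from sequencing read proportions per bin multiplied by bin number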

{"mutation": "G6A", "protein stability index": 2.15}
{"mutation": "K10F", "protein stability index": 1.74}
{"mutation": "K18C", "protein stability index": 2.72}
{"mutation": "S24V", "protein stability index": 2.5}
{"mutation": "N11S", "protein stability index": 2.7}
{"mutation": "P5N", "protein stability index": 2.39}
{"mutation": "S21V", "protein stability index": 2.09}
{"mutation": "P5C", "protein stability index": 2.02}
{"mutation": "I2W", "protein stability index": 2.12}
{"mutation": "N11A", "protein stability index": 3.47}
{"mutation": "C17L", "protein stability index": 1.58}
{"mutation": "S24M", "protein stability index": 2.37}
{"mutation": "S24W", "protein stability index": 3.62}
{"mutation": "S24D", "protein stability index": 3.1}
{"mutation": "E20T", "protein stability index": 2.33}
{"mutation": "K18N", "protein stability index": 2.66}
{"mutation": "C7P", "protein stability index": 1.4}
{"mutation": "W1C", "protein stability index": 3.78}
{"mutation": "Y16W", "protein stability index": 2.68}
{"mutation": "S12P", "protein stability index": 1.65}
{"mutation": "K10I", "protein stability index": 2.88}
{"mutation": "N11G", "protein stability index": 2.15}
{"mutation": "N11P", "protein stability index": 2.27}
{"mutation": "C9T", "protein stability index": 1.49}
{"mutation": "I2Y", "protein stability index": 2.23}
{"mutation": "P23A", "protein stability index": 2.29}
{"mutation": "C17K", "protein stability index": 2.42}
{"mutation": "I2M", "protein stability index": 2.4}
{"mutation": "R8D", "protein stability index": 2.67}
{"mutation": "L19M", "protein stability index": 2.37}
{"mutation": "I2L", "protein stability index": 2.34}
{"mutation": "S21Y", "protein stability index": 2.04}
{"mutation": "C7Y", "protein stability index": 1.45}
{"mutation": "H3K", "protein stability index": 2.13}
{"mutation": "V15D", "protein stability index": 3.14}
{"mutation": "R8T", "protein stability index": 2.26}
{"mutation": "C7D", "protein stability index": 2.28}
{"mutation": "S21P", "protein stability index": 2.74}
{"mutation": "C9L", "protein stability index": 2.69}
{"mutation": "V15W", "protein stability index": 2.92}
{"mutation": "R4Q", "protein stability index": 4.23}
{"mutation": "W1E", "protein stability index": 3.75}
{"mutation": "P5Y", "protein stability index": 3.19}
